# experimental_protocol: qHTS of pediatric cancer cell lines to identify multiple opportunities for drug repurposing: Confirmatory screen for BT-37 cells (AID 1347117);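 further: potency means the concentration at half of the fitted maximal effect; viability measured after 48 h of compound exposure; nearly all actives have a fitted effect of over 55% in size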
# experimental_conditions: BT-37 pediatric cancer cells, viability; series mostly up to 45.9 µM
# Procedure: Drug repurposing or repositioning has been offered as a strategy for drug development in oncology programs. […] [1] Shen, M et al. Quantitative high-throughput phenotypic screening of pediatric cancer cell lines identifies multiple opportunities for drug repurposing. […] Cells were assayed in growth media at a density of 500-1,000 cells/well. […] After a 15 min incubation at room temperature, samples were analyzed for luminescence intensity using a ViewLux High-throughput CCD imager equipped with clear filters.
Inconclusive results are not listed. Calls of active or inactive are those of the source. The call rests on the fitted dose curve; in most records, active means well fitted cell-killing curve with a large enough effect; inconclusive means small, poorly fitted or top-dose-only effect; inactive means no such curve, though single readings can be large or run the other way.
Potency listing for selected compounds.

Study these solved cases before continuing.
In [3]: df
Out[3]:
                            chemical_smiles           reported
0  COc1cc2nc(N3CCCN(C)CC3)nc(NC3CCN(Cc4ccccc4)CC3)c2cc1OC  20800 nM (active)
1  COc1cc(NCc2ccc3nc(N)nc(N)c3c2C)cc(OC)c1OC   2610 nM (active)

Please find the next compound below.
// sample `CCc1c2c(nc3ccc(OC(=O)N4CCC(N5CCCCC5)CC4)cc13)-c1cc3c(c(=O)n1C2)COC(=O)[C@]3(O)CC` , its Potency was 928 nM (active)

// data source = PubChem BioAssay (NCATS)
